Assay: 14C assay: 14CO2 capture from [14C]-carboxyl-labeled dicamba with IPTG-induced recombinant E. coli cells
Details: IPTG-induced recombinant E. coli cells; 14CO2 from [14C]-carboxyl-labeled dicamba
experimental-endpoint: Dicamba Decarboxylase Activity

15 (protein, listed as Metarhizium anisopliae) MAQEIAKSHETSTRFAGFAVLPMRDPEAAAKELERAVKKLGFVGALVDHKTAHGNGFCEGNEYDVLWRKAEQLAVPIYLHPSWPTEKQFQQAYAGNYSPTAAGTIGGAMFNWHSEVGHHVLRLYAAGVFDKFPKLKIIIGHFGEMIPYMLDRIREQDHRLGKTGRTFSEVYDENIWITTSGVWSLDPMRCILANTKIDHILYSVDYPFTMNERGLEWFQELEKSGLLSEEDLALIAYKNCEKLLGVKAPTQD :: Low
75 (protein, listed as Ectocarpus siliculosus) MAKIDSYTHFACPAFMDHLEAESGHPMVFRGLFSSIPELSDIDLRIRYMDEHGIDVHCLVPLPWLECEPGLHADEGKALEACRIANDEMARVVARFPDRLIGVALIPTTTEQAMIQETTRAVKELGMAGVALFVGPTAKPPDMACFEGLYRTCEELGAVVWMHPCRPQSYADYDSYKGEGSKHQIWNTFGWIYDTSVAMVHIALAGVFRRYPGLKVVTHHHGAMVPFFTARFDTQRRNFQEVEGDDLLEDLRLFYCDTATFGESAANIQQAIDFFGKSQVLFGTDTPMDMGTRGMFTRTTIASVEALGAAPEDKESFYAGNVLDMLGERFAGISGARGAVAARPKGDSTRIAASL :: Low
4 (protein, listed as Lactobacillus buchneri) MAKVITLEEHFSSQKLGQKMAEVLPKRPIGNVSPKMQDYMQRSLPPEAELEDVTGSRIQWMDQHQISMQILSYGNQNPQNSDPKFAVELTKLANDELAKAVAKAPDRFRAFASLPVSHPTDAAAELKRGVEELGFKGAMLVRPTSQAHPFFDDPFYLPIFEAAANLNVPVYLHPSFPDSQIIDYYYSNGPWDDKVSGILGTAGYGWHTDVGIQTVRLLLSGVFEKYPNLKLISGHWGEFASFALERMDQVMYPETNLSEPISKIYRDHVYVTPSGILTEPQLKFVKDEVGIEHLLYSIDYPYIKPENSGSFIESSPLTDEEKELFAHGNAEKLLQL :: High
17 (protein, Aspergillus niger) MARGKIALEEAFEVKGMDEEIDAQAALYIAPKDVERYKRQIVSITDERLQLSDQNGIGYSILSLTVPGIQGITDKDKAEKRARDVNNYIHDQIKDHRDRLGAFAALSMHDPRQAGHELRRCVKELGFHGALLNDVQHTGEGDDDQPLFYDQPDYDEFWRVAVELDVPVYLHPAAPLRDTLIYKQSYEDRKYLVGPPQSYCNGVALHLMGIIVNGVFDRFPNLKVIVGHMGERIPFDFWRMDHWVKGVTRPLAEKNGDTVCQKEPLYYFKRNIYITTSGHFSTQNLRYLYEWLGDERMMFSVDFPYERMEHGCQWYDDDAEKIKEALGGRDGYLRVGRDNARRLFKLTKFKDCDAV :: Low
